assay: Compound stability in human liver microsomes; format: in vitro ADME; conditions: pH 7.4; human liver microsomes 0.5 mg protein/mL, compound 5 μM, NADPH, 37° C.; read-out: Human T1/2
Quick reference for half-life at 5 μM among some compounds

{"compound": "Cc1c2ccc(Nc3ncc(Cl)c(NC4CCC5(CC4)CCN(C(=O)CC#N)CC5)n3)cc2nn1C", "half-life at 5 μM": "1.33 h"}
{"compound": "Cc1cnc(Nc2ccc3c(C)n(C)nc3c2)nc1NC1CC2CN(S(C)(=O)=O)CC2C1 (stereo not shown)", "half-life at 5 μM": "0.333 h"}
{"compound": "CC(=O)N1CCC2(CCC(Nc3nc(Nc4ccc5c(C)n(C)nc5c4)ncc3C)CC2)CC1", "half-life at 5 μM": "0.861 h"}
{"compound": "Cc1cnc(Nc2ccc3c(C)n(C)nc3c2)nc1NC1CCC2(CC1)CCN(C(=O)CC#N)CC2", "half-life at 5 μM": "2.77 h"}
